Reference source: patent US9695155B2

Listed here are compounds together with their documented Chickweed plant response rating.
- Test system: chickweed
- protocol.description: Test C postemergence
- Format: in vivo, Stellaria media
- protocol.conditions: 31 g ai/ha, postemergence; visual rating, scale 0 to 100 (0 no effect, 100 complete control), 13 to 15 days

Some compounds with known Chickweed plant response rating results, for comparison:
// Input: "FCc1cn(-c2c(F)cccc2Oc2ncc(Cl)cn2)nn1" . Output its Chickweed plant response rating only.
5

// Input: "N#Cc1cccc(Oc2ncc(Cl)cn2)c1-n1cc(-n2ccc(C(F)(F)F)n2)cn1" . Output its Chickweed plant response rating only.
65

// Input: "N#Cc1cccc(Oc2ncc(Cl)cn2)c1-n1cc(I)cn1" . Output its Chickweed plant response rating only.
75

// Input: "N#Cc1cnn(-c2c(Oc3ncc(Cl)cn3)cccc2C(F)F)c1" . Output its Chickweed plant response rating only.
50

// switching to the query compound
// Input: "CCCOc1cnn(-c2c(C#N)cccc2Oc2ncc(Cl)cn2)c1" . Output its Chickweed plant response rating only.
65

* * *

Listed here are molecules together with their documented Galium plant response rating.
- Tested on: galium
- protocol.description: Test C preemergence
- Assay type: in vivo, Galium aparine
- protocol.conditions: 125 g ai/ha, preemergence; scale 0 (no effect) to 100 (complete control)
Response field accepts a number only; no unit should be typed.

Some molecules with known Galium plant response rating results, for comparison:
// Input: Fc1cnc(Oc2cccc(C(F)F)c2-n2cc(Br)cn2)nc1 [Compound 112] . Output its Galium plant response rating only.
95

// Input: CCOc1cnn(-c2ccccc2Oc2ncc(Cl)cn2)c1 [Compound 187] . Output its Galium plant response rating only.
98

// Input: FC(F)(F)c1cnn(-c2c(Cl)cccc2Oc2ncc(Cl)cn2)c1 [Compound 167] . Output its Galium plant response rating only.
100

// Input: CCCOc1cnn(-c2c(C#N)cccc2Oc2ncc(Cl)cn2)c1 [Compound 150] . Output its Galium plant response rating only.
100

// Input: Fc1cccc(Oc2ncc(Cl)cn2)c1-n1cc(OCC(F)(F)F)cn1 [Compound 270] . Output its Galium plant response rating only.
100

***
// Input: CCOc1cnn(-c2c(C#N)cccc2Oc2ncc(F)cn2)c1 [Compound 89] . Output its Galium plant response rating only.
100

// Input: FCc1cccc(Oc2ncc(Cl)cn2)c1-n1cc(Br)cn1 [Compound 83] . Output its Galium plant response rating only.
100

* * *

- System: morningglory
- protocol.description: Test A preemergence
- Assay type: in vivo, Ipomoea spp.
- protocol.conditions: 500 g ai/ha, 0 to 100 scale where 0 is no effect and 100 is complete control
measurement.label: Morningglory plant response rating

// Input: O=[N+]([O-])c1cnc(Oc2ccccc2-n2cc(Br)cn2)nc1 [Compound 225] . Output its Morningglory plant response rating only.
0

// Input: N#Cc1cnc(Oc2cccc(C(F)F)c2-n2cc(Br)cn2)nc1 [Compound 175] . Output its Morningglory plant response rating only.
0

// Input: Clc1cnc(Oc2cccc(-c3cccnc3)c2-n2cc(Br)cn2)nc1 [Compound 290] . Output its Morningglory plant response rating only.
0

* * *

Listed here are compounds together with their documented Plant response rating, Lambsquarters.
- System: lambsquarters
- protocol.description: Test C postemergence
- Type: in vivo, Chenopodium album
- protocol.conditions: Postemergence, 31 g ai/ha; scale 0 to 100 (0 no effect, 100 complete control); 13 to 15 days
Response field accepts a number only; no unit should be typed.

Some compounds with known Plant response rating, Lambsquarters results, for comparison:
// Input: "N#Cc1cccc(Oc2ncc(Br)cn2)c1-n1cc(I)cn1" . Output its Plant response rating, Lambsquarters only.
75

// Input: "FC(F)(F)c1cnn(-c2ccccc2Oc2ncc(Cl)cn2)c1" . Output its Plant response rating, Lambsquarters only.
75

// Input: "N#Cc1cccc(Oc2ncc(F)cn2)c1-n1cc(Cl)cn1" . Output its Plant response rating, Lambsquarters only.
25

***
// Input: "FCc1cccc(Oc2ncc(Cl)cn2)c1-n1cc(Br)cn1" . Output its Plant response rating, Lambsquarters only.
80
